Each recorded value in this set is attributed to ChEMBL document CHEMBL1828587.

Assay: Ratio of drug level in brain to plasma in rat at 10 mg/kg, po after 1 hr
Assay type: ADME, organism-based
Set-up: dose 10 mg/kg, route oral
Details: read-out: BPR
Quantity: Kp at 1 h

> print(dat)
                              line.notation   quantity  assay.value
1  CCCN(CCC)c1c(C)c(Nc2ccc(OC)cc2Cl)nc2ccnn12  Kp at 1 h          6.2
